The values you see were collected from patent US20090081238A1.

Reported Kd is given for each of the following binders.
biological target: T1, mFLAG-EGF34+NRR-His6, the mouse Notch1 NRR immunogen (Notch1 V1307-Q1723) (mouse, UniProt Q01705 1307-1723); test: SPR (BIAcore-3000), IgG captured by anti-human IgG, NRR1-ECD injected 3.9-500 nM, 25 C
T1 construct: the rest carries an N-terminal FLAG tag and a C-terminal His tag; also called mNotch1 NRR; murine NRR1
T1 sequence (Q01705 other isoform, or with tags, fused parts or gaps): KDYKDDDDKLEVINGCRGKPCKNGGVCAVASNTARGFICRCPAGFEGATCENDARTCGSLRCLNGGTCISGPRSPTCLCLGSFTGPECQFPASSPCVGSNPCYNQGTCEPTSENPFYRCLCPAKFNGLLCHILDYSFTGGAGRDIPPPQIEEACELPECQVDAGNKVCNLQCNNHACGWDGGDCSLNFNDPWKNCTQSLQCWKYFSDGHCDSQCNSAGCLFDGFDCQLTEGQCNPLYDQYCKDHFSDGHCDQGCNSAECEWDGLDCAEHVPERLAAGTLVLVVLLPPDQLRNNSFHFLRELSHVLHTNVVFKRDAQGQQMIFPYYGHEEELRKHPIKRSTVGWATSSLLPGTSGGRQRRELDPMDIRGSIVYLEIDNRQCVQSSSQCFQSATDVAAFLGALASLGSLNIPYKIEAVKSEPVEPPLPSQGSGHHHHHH

{"binder": "Antibody A-3 (antibody, V domains shown) VH: EVQLVESGGGLVQPGGSLRLSCAASGFTFSSYWIHWVRQAPGKGLEWVARINPANGSTRYADSVKGRFTISADTSKNTAYLQMNSLRAEDTAVYYCARGSGFRWVMDYWGQGTLVTVSS VL: DIQMTQSPSSLSASVGDRVTITCRASQDVSTAVAWYQQKPDGTVKLLIYSASFLYSGVPSRFSGSGSGTDFTLTISSLQPEDFATYYCQQSFSTPATFGQGTKVEIK", "Kd": "13 nM"}
{"binder": "Antibody A (antibody, V domains shown, Tested as full-length human IgG1 (hIgG1) made in CHO cells; also called anti-Notch1 NRR Antibody A; Antibody A-hIgG1) VH: EVQLVESGGGLVQPGGSLRLSCAASGFTFSSYWIHWVRQAPGKGLEWVARINPSNGSTNYADSVKGRFTISADTSKNTAYLQMNSLRAEDTAVYYCARGSGFRWVMDYWGQGTLVTVSS VL: DIQMTQSPSSLSASVGDRVTITCRASQDVSTAVAWYQQKPDGTVKLLIYSASFLYSGVPSRFSGSGSGTDFTLTISSLQPEDFATYYCQQSYTTPPTFGQGTKVEIKR", "Kd": "231 nM"}
{"binder": "Antibody A-2 (antibody, V domains shown, also called Antibody A-2-hIgG1) VH: EVQLVESGGGLVQPGGSLRLSCAASGFTFSSYWIHWVRQAPGKGLEWVARINPPNRSNQYADSVKGRFTISADTSKNTAYLQMNSLRAEDTAVYYCARGSGFRWVMDYWGQGTLVTVSS VL: DIQMTQSPSSLSASVGDRVTITCRASQDVSTAVAWYQQKPDGTVKLLIYSASFLYSGVPSRFSGSGSGTDFTLTISSLQPEDFATYYCQQFYTTPSTFGQGTKVEIKR", "Kd": "3.09 nM"}
{"binder": "Antibody A-1 (antibody, V domains shown, also called Antibody A-1-hIgG1) VH: EVQLVESGGGLVQPGGSLRLSCAASGFTFSSYWIHWVRQAPGKGLEWVARINPPNGSAHYADSVKGRFTISADTSKNTAYLQMNSLRAEDTAVYYCARGSGFRWVMDYWGQGTLVTVSS VL: DIQMTQSPSSLSASVGDRVTITCRASQDVSTAVAWYQQKPDGTVKLLIYSASFLYSGVPSRFSGSGSGTDFTLTISSLQPEDFATYYCQQSYTTPATFGQGTKVEIKR", "Kd": "3.88 nM"}
